Measured values drawn from ChEMBL document CHEMBL3817840 for this set.

Entries and their AUC values follow.
Test system: Brain
TEST_NAME: AUC (0 to 4 hrs) in C57BL/6 mouse brain at 2 mg/kg, ip by UPLC/MS/MS analysis
Assay type: ADME, organism-based
Parameters: dose 2 mg/kg, time < 4 hr, route intraperitoneal
CONDITIONS: in vivo

Field: example entries. Status: answers known.
smiles_text=CN1CCC(S(=O)(=O)c2c(Cl)ccc(NC(=O)Nc3cccc(F)c3Cl)c2O)CC1 assay_target=Brain recorded_result="335 ng·h/g"
smiles_text=O=C(Nc1ccc(Cl)c(S(=O)(=O)C2CCC2)c1O)Nc1cccc(F)c1Cl assay_target=Brain recorded_result="28.4 ng·h/g"
smiles_text=CN1CCN(S(=O)(=O)c2c(Cl)ccc(NC(=O)Nc3cccc(Cl)c3Cl)c2O)CC1 assay_target=Brain recorded_result="151 ng·h/g"
smiles_text=CC(C)S(=O)(=O)c1c(Cl)ccc(NC(=O)Nc2cccc(F)c2Cl)c1O assay_target=Brain recorded_result="95 ng·h/g"

Q) Note down AUC recorded for CN1CCC2(CCC(S(=O)(=O)c3c(Cl)ccc(NC(=O)Nc4cccc(F)c4Cl)c3O)CC2)CC1
A) 69.3 ng·h/g

###

TEST_NAME: Volume of distribution at steady state in C57BL/6 mouse at 1 mg/kg, iv
Type: ADME, organism-based
CONDITIONS: in vivo, read-out: Vdss
OBSERVABLE: Vd (L/kg)
Field format: number, assumed L/kg, no unit text.

smiles_text=CN1CCC(S(=O)(=O)c2c(Cl)ccc(NC(=O)Nc3cccc(F)c3Cl)c2O)CC1 recorded_result=3.17

Q) Answer with the recorded Vd of CN1CC[C@H](S(=O)(=O)c2c(Cl)ccc(NC(=O)Nc3cccc(Cl)c3Cl)c2O)C1 only.
A) 1.72

Q) For the compound CCN1CCC(S(=O)(=O)c2c(Cl)ccc(NC(=O)Nc3cccc(F)c3Cl)c2O)CC1 , give its reported Vd.
A) 2.82

Q) Report measured Vd; entry is CN1CCC(S(=O)(=O)c2c(Cl)ccc(NC(=O)Nc3cccc(Cl)c3Cl)c2O)CC1
A) 2.12

###

TEST_NAME: Ratio of drug level in C57BL/6 mouse brain to blood at 1.9 mg/kg, po
Assay type: ADME, organism-based
OBSERVABLE: Kp
Response field accepts a number only; no unit should be typed.

Q) Check the records and state Kp for NS(=O)(=O)c1c(Cl)ccc(NC(=O)Nc2cccc(Cl)c2Cl)c1O
A) 0.14

###

molecules and their reported AUC
Test system: Brain
TEST_NAME: AUC (0 to 4 hrs) in C57BL/6 mouse brain at 2 mg/kg, ip by UPLC/MS/MS analysis
Type: ADME, organism-based
Parameters: dose 2 mg/kg, time < 4 hr, route intraperitoneal
CONDITIONS: in vivo
Provide the reading as a plain figure in ng·h/g.

Some molecules with known AUC results, for comparison:
molecule=CCN1CCC(S(=O)(=O)c2c(Cl)ccc(NC(=O)Nc3cccc(F)c3Cl)c2O)CC1 assay_target=Brain recorded_result=244
molecule=CN1CCN(S(=O)(=O)c2c(Cl)ccc(NC(=O)Nc3cccc(F)c3Cl)c2O)CC1 assay_target=Brain recorded_result=83
molecule=CN1CCC2(CC1)CC(S(=O)(=O)c1c(Cl)ccc(NC(=O)Nc3cccc(F)c3Cl)c1O)C2 assay_target=Brain recorded_result=111
molecule=CCS(=O)(=O)c1c(Cl)ccc(NC(=O)Nc2cccc(Cl)c2Cl)c1O assay_target=Brain recorded_result=73.9
molecule=CC(C)S(=O)(=O)c1c(Cl)ccc(NC(=O)Nc2cccc(Cl)c2Cl)c1O assay_target=Brain recorded_result=180

Q) Could you please provide reported AUC for C[C@@H]1CN(S(=O)(=O)c2c(Cl)ccc(NC(=O)Nc3cccc(Cl)c3Cl)c2O)C[C@H](C)O1 ? Thanks!
A) 73

Q) For CC(C)N1CCN(S(=O)(=O)c2c(Cl)ccc(NC(=O)Nc3cccc(F)c3Cl)c2O)CC1 , write its AUC.
A) 99

###

ASSAY_TARGET: Voltage-gated inwardly rectifying potassium channel KCNH2 (Homo sapiens, UniProt Q12809)
Sequence (Q12809 whole entry): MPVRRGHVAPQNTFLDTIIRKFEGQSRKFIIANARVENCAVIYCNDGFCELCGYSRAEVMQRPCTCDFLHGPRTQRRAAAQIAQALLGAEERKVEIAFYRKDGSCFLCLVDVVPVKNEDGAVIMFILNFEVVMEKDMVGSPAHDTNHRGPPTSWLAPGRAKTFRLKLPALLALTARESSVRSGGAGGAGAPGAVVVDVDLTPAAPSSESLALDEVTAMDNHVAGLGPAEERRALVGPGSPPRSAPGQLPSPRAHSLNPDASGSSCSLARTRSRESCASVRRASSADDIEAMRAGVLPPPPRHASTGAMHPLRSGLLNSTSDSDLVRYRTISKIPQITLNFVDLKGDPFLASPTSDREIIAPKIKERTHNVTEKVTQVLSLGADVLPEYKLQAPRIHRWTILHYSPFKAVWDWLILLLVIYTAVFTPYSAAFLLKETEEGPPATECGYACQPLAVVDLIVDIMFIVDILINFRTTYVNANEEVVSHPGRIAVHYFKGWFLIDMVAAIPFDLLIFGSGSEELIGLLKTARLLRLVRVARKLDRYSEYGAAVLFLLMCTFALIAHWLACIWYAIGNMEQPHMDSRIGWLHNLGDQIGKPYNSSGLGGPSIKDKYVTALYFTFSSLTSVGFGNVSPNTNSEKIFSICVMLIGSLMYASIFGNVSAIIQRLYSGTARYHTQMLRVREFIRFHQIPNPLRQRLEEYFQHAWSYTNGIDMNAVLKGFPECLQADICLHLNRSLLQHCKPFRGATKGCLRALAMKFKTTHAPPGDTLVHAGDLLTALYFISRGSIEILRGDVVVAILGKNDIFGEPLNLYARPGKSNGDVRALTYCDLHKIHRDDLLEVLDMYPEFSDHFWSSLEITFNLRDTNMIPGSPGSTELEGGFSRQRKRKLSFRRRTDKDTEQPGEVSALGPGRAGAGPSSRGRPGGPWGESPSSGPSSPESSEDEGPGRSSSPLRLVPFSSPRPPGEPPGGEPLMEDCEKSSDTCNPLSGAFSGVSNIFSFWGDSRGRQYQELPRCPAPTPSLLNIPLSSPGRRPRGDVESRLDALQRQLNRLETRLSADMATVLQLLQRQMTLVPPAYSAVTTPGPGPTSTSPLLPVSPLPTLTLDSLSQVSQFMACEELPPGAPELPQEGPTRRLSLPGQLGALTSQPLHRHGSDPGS
pIC50: −log10 of the molar value.
OBSERVABLE: pIC50

Q) Provide measured pIC50 value, entry: CN1CCC(S(=O)(=O)c2c(Cl)ccc(NC(=O)Nc3cccc(Cl)c3Cl)c2O)CC1
A) < 4.10

###

Catalogue of clearance readings, one per entry.
TEST_NAME: Clearance in C57BL/6 mouse blood at 1 mg/kg, iv
Type: ADME, organism-based
Quick reminder: number only, in mL/min/kg, skip the unit.

The cases that follow already have their clearance on record.
smiles_text=CN1CCC(S(=O)(=O)c2c(Cl)ccc(NC(=O)Nc3cccc(Cl)c3Cl)c2O)CC1 observable=clearance recorded_result=15.6
smiles_text=CN1CC[C@H](S(=O)(=O)c2c(Cl)ccc(NC(=O)Nc3cccc(Cl)c3Cl)c2O)C1 observable=clearance recorded_result=15.4
smiles_text=CN1CCC(S(=O)(=O)c2c(Cl)ccc(NC(=O)Nc3cccc(F)c3Cl)c2O)CC1 observable=clearance recorded_result=16.9

Below: the item to evaluate.
Q) Report clearance, nothing else, for this compound: CCN1CCC(S(=O)(=O)c2c(Cl)ccc(NC(=O)Nc3cccc(F)c3Cl)c2O)CC1
A) 30.8

###

TEST_NAME: Cmax in C57BL/6 mouse at 2 mg/kg, po
Assay type: ADME, organism-based
Design: dose 2 mg/kg, route oral
CONDITIONS: in vivo
OBSERVABLE: Cmax (µg/mL)
Answer format: numeric, µg/mL implied, no suffix.

Recorded Cmax, per entry:
smiles_text=CN1CCC(S(=O)(=O)c2c(Cl)ccc(NC(=O)Nc3cccc(F)c3Cl)c2O)CC1 observable=Cmax unit_abbreviation=µg/mL recorded_result=0.157
smiles_text=CN1CC[C@H](S(=O)(=O)c2c(Cl)ccc(NC(=O)Nc3cccc(Cl)c3Cl)c2O)C1 observable=Cmax unit_abbreviation=µg/mL recorded_result=0.216
smiles_text=CCN1CCC(S(=O)(=O)c2c(Cl)ccc(NC(=O)Nc3cccc(F)c3Cl)c2O)CC1 observable=Cmax unit_abbreviation=µg/mL recorded_result=0.125

Continue with the compound presented below.
Q) Identify measured Cmax corresponding to CN1CCC(S(=O)(=O)c2c(Cl)ccc(NC(=O)Nc3cccc(Cl)c3Cl)c2O)CC1
A) 0.132

###

Measured AUC(0-t) at 4 h, listed per entry for reference.
TEST_NAME: AUC (0 to 4 hrs) in C57BL/6 mouse blood at 2 mg/kg, ip by UPLC/MS/MS analysis
Format: ADME, organism-based
Parameters: dose 2 mg/kg, time < 4 hr, route intraperitoneal
CONDITIONS: C57BL/6, mouse, blood
Record the value in ng·h/mL, omitting the unit from your answer.

smiles_text=CCN1CCC(S(=O)(=O)c2c(Cl)ccc(NC(=O)Nc3cccc(F)c3Cl)c2O)CC1 recorded_result=684
smiles_text=CN1CC[C@H](S(=O)(=O)c2c(Cl)ccc(NC(=O)Nc3cccc(Cl)c3Cl)c2O)C1 recorded_result=577
smiles_text=CN1CCC2(CC1)CC(S(=O)(=O)c1c(Cl)ccc(NC(=O)Nc3cccc(F)c3Cl)c1O)C2 recorded_result=1390
smiles_text=CN1CCC[C@H](S(=O)(=O)c2c(Cl)ccc(NC(=O)Nc3cccc(F)c3Cl)c2O)CC1 recorded_result=463
smiles_text=CC(C)S(=O)(=O)c1c(Cl)ccc(NC(=O)Nc2cccc(Cl)c2Cl)c1O recorded_result=290

// switching to the query compound
Q) Report AUC(0-t) at 4 h, nothing else, for this compound: O=C(Nc1ccc(Cl)c(S(=O)(=O)C2CCOCC2)c1O)Nc1cccc(Cl)c1Cl
A) 290

###

ASSAY_TARGET: Cytochrome P450 2C9 (Homo sapiens, UniProt P11712)
Sequence (P11712 whole entry): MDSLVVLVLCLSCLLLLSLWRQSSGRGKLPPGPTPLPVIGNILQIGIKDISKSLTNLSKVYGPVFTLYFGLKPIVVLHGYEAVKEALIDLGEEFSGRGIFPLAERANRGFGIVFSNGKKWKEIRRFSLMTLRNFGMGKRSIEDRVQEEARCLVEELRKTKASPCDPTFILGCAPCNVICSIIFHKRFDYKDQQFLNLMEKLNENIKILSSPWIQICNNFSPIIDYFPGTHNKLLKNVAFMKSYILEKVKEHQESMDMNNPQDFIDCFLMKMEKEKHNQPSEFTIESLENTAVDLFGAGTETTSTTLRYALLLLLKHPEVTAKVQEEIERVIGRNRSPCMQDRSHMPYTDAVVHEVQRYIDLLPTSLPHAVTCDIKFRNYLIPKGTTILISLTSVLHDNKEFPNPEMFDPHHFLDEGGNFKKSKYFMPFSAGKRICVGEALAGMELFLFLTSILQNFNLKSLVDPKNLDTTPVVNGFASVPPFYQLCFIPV
OBSERVABLE: IC50

Q) Consider the molecule CN1CC[C@H](S(=O)(=O)c2c(Cl)ccc(NC(=O)Nc3cccc(Cl)c3Cl)c2O)C1 . State its measured IC50.
A) > 10 µM

###

As shown below, each of these molecules has a reported half-life value.
TEST_NAME: Half life in C57BL/6 mouse at 1 mg/kg, iv
Format: ADME, organism-based
CONDITIONS: in vivo
Provide only the numeric value, understood in h.

Would you please look over these solved cases?
smiles_text=CN1CCC(S(=O)(=O)c2c(Cl)ccc(NC(=O)Nc3cccc(Cl)c3Cl)c2O)CC1 recorded_result=2
smiles_text=CCN1CCC(S(=O)(=O)c2c(Cl)ccc(NC(=O)Nc3cccc(F)c3Cl)c2O)CC1 recorded_result=2.3
smiles_text=CN1CCC(S(=O)(=O)c2c(Cl)ccc(NC(=O)Nc3cccc(F)c3Cl)c2O)CC1 recorded_result=2.8

Could you now look at the following molecule, please?
Q) Please indicate half-life recorded for CN1CC[C@H](S(=O)(=O)c2c(Cl)ccc(NC(=O)Nc3cccc(Cl)c3Cl)c2O)C1
A) 1.9

###

ASSAY_TARGET: C-X-C chemokine receptor type 2 (Homo sapiens, UniProt P25025)
Sequence (P25025 whole entry, the tested form may be a part): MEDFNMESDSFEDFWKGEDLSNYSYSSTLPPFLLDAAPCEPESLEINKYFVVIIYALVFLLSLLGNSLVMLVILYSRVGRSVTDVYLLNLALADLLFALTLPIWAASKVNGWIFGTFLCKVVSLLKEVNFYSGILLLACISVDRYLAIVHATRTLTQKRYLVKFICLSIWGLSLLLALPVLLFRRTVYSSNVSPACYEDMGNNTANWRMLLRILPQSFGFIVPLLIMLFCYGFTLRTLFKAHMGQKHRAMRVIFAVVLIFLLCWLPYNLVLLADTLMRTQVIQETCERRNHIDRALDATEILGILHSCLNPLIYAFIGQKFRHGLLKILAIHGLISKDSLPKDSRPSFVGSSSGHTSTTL
TEST_NAME: Antagonist activity at human recombinant Gal4-VP16 fused-CXCR2 assessed as inhibition of CXCL1-mediated lactamase reporter gene expression after overnight incubation
Consider the following compounds and their measured pIC50 readings.
// pIC50 is dimensionless: -log10 of concentration (M)

compound=CN1CCC(S(=O)(=O)c2c(Cl)ccc(NC(=O)Nc3cccc(Cl)c3Cl)c2O)CC1 recorded_result=8.80
compound=O=C(Nc1ccc(Cl)c(S(=O)(=O)N2CCNCC2)c1O)Nc1cccc(Cl)c1Cl recorded_result=9.20
compound=O=C(Nc1ccc(Cl)c(S(=O)(=O)C2CCOCC2)c1O)Nc1cccc(Cl)c1Cl recorded_result=9.10

Now take the following compound into account.
Q) Please report pIC50 for the following compound: O=C(Nc1ccc(Cl)c(S(=O)(=O)C2CCCC2)c1O)Nc1cccc(F)c1Cl
A) 9.50
